- Tested on: NCI-H460
- Test protocol: Antiproliferative activity against human NCI-H460 cells after 72 hrs by coulter counter analysis
- Assay type: functional, cell-based
- Condition notes: NCI-H460, 72 h
Recorded endpoint: IC50

Answered cases to consult:
COc1cc(-c2c3n(c(=O)c4c2c2cc(OC)c(O)cc2n4C)COc2cc(O)c(OC)cc2-3)ccc1O; 350 nM
COc1cc(-c2c3c4cc(OC)c(O)cc4oc(=O)c3n3ccc4cc(O)c(OC)cc4c23)ccc1O [LAMELLARIN D]; 3 nM

Now look at this entry.
Inquiry: Please indicate IC50 recorded for CC[C@@]1(O)C(=O)OCc2c1cc1n(c2=O)Cc2cc3c(CN(C)C)c(O)ccc3nc2-1 [TOPOTECAN]
Reply text: 16 nM
